Task for the reader: assign each of the following sequences its reported apparent KD of MS2 coat protein.
system: MS2 coat protein; test: apparent KD of MS2 coat protein, switch ON state; designed switch direction (-1 OFF switch, 1 ON switch): 1; higher = weaker reporter binding; settings: FMN input: 0 or 200 uM; Eterna round: R93 (includes R88 designs)
Write the value in nM as a bare number.

## Task // lookup apparent KD of MS2 coat protein for AACAAACAUGAGGAUCACCCAUGUAGAAACAUGGGAGGAUAUACGAAGACGAAAGUCAAAGUAGAAGGCCUAAAAA [Garnet 91]
## Result 69.1

## Task I'd like to know its apparent KD of MS2 coat protein. The sequence in question is GUCAGGAAGAGAGAGGAUAUCCAAAGGAAAACAUGAGGAUCACCCAUGUAAAAGGUAGGAAAUUGGGAGAAGGCUCAAGAGAGAG [salish99-ss2-095]
## Result 31.5

## Task Using the record for CGAAGACAUGAGGAUCACCCAUGUGGGAAUAUGGGAGGAUAUACAAAGACGAGAGUCAGAGUAGAAGGCCUAGGAG [salish99-ss1-106] , report its apparent KD of MS2 coat protein.
## Result 40.2

====

tested on: MS2 coat protein; test: apparent KD of MS2 coat protein; designed switch direction (-1 OFF switch, 1 ON switch): 1; higher = weaker reporter binding; conditions: Eterna round: R95; input ligand: microRNA oligo, concentration not stated
For each entry below, report its apparent KD of MS2 coat protein value.
Reply numerically in nM, unit not repeated.

## Task Could you share which apparent KD of MS2 coat protein value was measured for AAAGGACAUGAGGAUCACCCAUGUAGAAAAUACACAGGAUAUCGUCAUAUCGAAAUAUAAUGAGAAGGGUGCAAAA [Zaanininra] (puzzle: Same State 1) ?
## Result 179

## Task GET /values?readout=apparent KD of MS2 coat protein&item= UCUUGGUUUUUGCUCGUUUUUUGUGUUGAACAUGAGGAUCACCCAUGUAUUGUACAAUCCAGUUUAAUAAUGGUCCA [Mod of one of JR's submissions 2] (puzzle: Sensor for hsa-mir-208a)
## Result 51

## Task Endpoint output: apparent KD of MS2 coat protein of GAUAGACAUGAGGAUCACCCAUGUGACAAAACCACAGGAUAUCAUGCAGGCGUACCUGCAUGAGAAGGGUGAGACU [Ceriinaqu] (puzzle: Same State 1) . Value?
## Result 35.3

## Task Any idea what apparent KD of MS2 coat protein was measured for AGUCCAGCCUGAGCUGGACAAAAGCAUGUACAUGAGGAUCACCCAUGUUCAUGUACAAGCUUUUUGCUCGUCUUGCC [salish99_208a_r3_107x] (puzzle: Sensor for hsa-mir-208a) ?
## Result 15.9

## Task Which apparent KD of MS2 coat protein value is on record for UUUGGGUGGCUGGAGGAUAUUCGAGUGGUAACAUGAGGAUCACCCAUGUGUCGCGCGGUACACGAGGAGAAGGCUGGCGGCCGUU (puzzle: Same State 2) ?
## Result 41.7

## Task Item under review: CUGCUACAUGAGGAUCACCCAUGUUGGAGUGAUGCAGGAUAUGUGGGACCAGAAGAUGAAACAGAAGGGCAAGGAG [JR_SS!_Sub006] (puzzle: Same State 1) . Reported apparent KD of MS2 coat protein?
## Result 95.7

## Task For the sequence shown here, GGAGGACAUGAGGAUCACCCAUGUGGAUGGGCGCUAGGAUAUGCGAGAGGGAAGAGUGGAGCAGAAGGAGUGGGUU [JR_SS1_Sub044] (puzzle: Same State 1) , give the reported apparent KD of MS2 coat protein.
## Result 40

## Task Look at this sequence and give its reported apparent KD of MS2 coat protein. GUGGUGUAGAUACAGGAUAUGUUGCUCGUAACAUGAGGAUCACCCAUGUAUCUAUGAGAUUAAAUGCAGAAGGGUGCACACCACU [salish99_ss2_r3_086] (puzzle: Same State 2)
## Result 148

## Task What apparent KD of MS2 coat protein value was documented for this sequence, ACAAGACAUGAGGAUCACCCAUGUAUAAAUUACACAGGAUAUCGGCGGACCGCACCCGCACGAGAAGGGUGACUUC [Eszaleer] (puzzle: Same State 1) ?
## Result 34.1

## Task What value of apparent KD of MS2 coat protein has been recorded for this entry: AUAAAACAUGAGGAUCACCCAUGUCAACAAUGUCGAGGAUAUGGGCAAAUAAAAUAAGAACCAGAAGGCGAAUAAU [salish99_ss1_r3_039] (puzzle: Same State 1)
## Result 248

## Task Entry under review: UCUUGGUUUUUGCUCGUUUUUUGUGUUGAACAUGAGGAUCACCCAUGUAUUGUACAAUCCGGUUUAAUAAUGGUCCG [JMF 51] (puzzle: Sensor for hsa-mir-208a) . Reported apparent KD of MS2 coat protein?
## Result 26.7
